Measured viability at 28.5 h, 10 µM, listed per entry for reference.
assay: in vitro; details: human, hela cells, % viability
Answer format: numeric, % implied, no suffix.

Use these answered entries as a reference point.
1) FC(F)(F)c1cc(/C=C/c2cccs2)n[nH]1 = 92.1
2) Cc1cc(CNS(=O)(=O)N2CCCC2)c2[nH]c(C)c(C)c2c1 = 95.1
3) Cc1ccc(C2CC(=O)C(=CNCCN3CCN(C(=S)Nc4ccccc4)CC3)C(=O)C2)cc1 (stereo not shown) = 96.3
4) CC[C@H]1CN(C(=O)NC(C)C)CC[C@H]1CC(=O)NCc1ccc2c(c1)OCO2 = 97.9
5) NC(=O)c1c[nH]c2ccccc12 = 80.7

We next turn to a different compound, shown below.
Request: Output viability at 28.5 h, 10 µM of CC(C)(C)c1ccc(OCC(O)Cn2c(CO)nc3ccccc32)cc1 (stereo not shown)
Response: 81.7

----------
assay: in vitro; details: human, hela cells, % viability
measurement.name: viability at 28.5 h, 10 µM (%)
The figure you give is taken to be in %; do not add the unit.

1. O=C(COc1ccc(S(=O)(=O)Nc2ccc(Cl)cc2)cc1)Nc1ccccc1F = 108

Request: // fetch viability at 28.5 h, 10 µM given entry CCCc1[nH]nc(O)c1Cc1ccccc1C(F)(F)F
Response: 92.7

Request: Please report the measured viability at 28.5 h, 10 µM for O=C(O)C1CCCCC1C(=O)NCc1cccnc1 (stereo not drawn)
Response: 91.7

Request: Consider the compound CCc1nc2ccc(C(=O)NCCN3CCOCC3)cn2c1N(C=O)Cc1ccc(OC)cc1 . State its measured viability at 28.5 h, 10 µM.
Response: 97.9

Request: Recall and state the measured viability at 28.5 h, 10 µM for CC(C)c1nc(NCCc2nnc3n2CCC3)nc(N(C)C)n1 .
Response: 89.1

Request: Return the recorded viability at 28.5 h, 10 µM value; entry: COc1cccc(CN2CCC(c3ncc(C(=O)Nc4ccc(F)cc4)c(C)n3)CC2)c1
Response: 89.8

----------
Recorded viability at 28.5 h, 10 µM by entry
test: in vitro; settings: human, hela cells, % viability
# number only, unit % dropped from output

1) Cc1cc(-c2nccnc2NCc2ccccn2)cc(C)c1O = 94.2
2) OC(CN1CCC(O)(c2ccccc2F)CC1)c1ccc(Cl)cc1 (centres unmarked) = 87
3) CC(=O)N(C)c1nc(-c2cccc(N(C)C)c2)ccc1C(=O)Nc1ccc(C(F)(F)F)cc1 = 98.5
4) O=S(=O)(c1cc(Cl)ccc1Cl)N1CCCN(Cc2ccccc2)CC1 = 104

Request: Report measured viability at 28.5 h, 10 µM; entry is Nc1ncnc2c1ncn2C1OC(CO)C(O)C1O (centres unmarked)
Response: 92.6

Request: Please indicate viability at 28.5 h, 10 µM recorded for COCCNCc1ccc(OCc2ccccc2)cc1 [CBK270133C]
Response: 91.1

Request: Return the recorded viability at 28.5 h, 10 µM value; entry: Cc1ccc(SCCCCn2cnc3ccccc32)cc1 [CBK267801G]
Response: 103

Request: Please give the documented viability at 28.5 h, 10 µM of Cc1nn(CC(=O)NC(C)c2cccnc2)c(C)c1C (centres unmarked)
Response: 102

----------
assay: in vitro; details: human, hela cells, % viability
Define the label as y when viability at 28.5 h, 10 µM is strictly less than 90% and as n in all remaining cases.

Look over these answered cases.
1. CC1(C)Cc2ccccc2C(NCC(=O)O)=N1 = y
2. CCN(CC)CCN1C(=O)C(O)=C(C(=O)c2ccc3c(c2)OCO3)C1c1cccnc1 (stereo not shown) = n
3. O=C(Nc1ccc2cc[nH]c2c1)c1cccnc1 = n
4. O=C(O)c1ccc2c(c1)C(=O)N(c1ccc(/C=C/C(=O)c3ccccc3)cc1)C2=O = y
5. Cc1ccc(CS(=O)(=O)N(CC(C)C)C2CC2)c(F)c1 = y
6. O=C(Oc1ccc(-n2ccnc2)cc1)c1ccc(-c2ccccc2)cc1 = n
7. COc1ccc(/C(C)=N/NC(=N)SC2CC(=O)N(c3ccc(C(=O)O)cc3)C2=O)cc1F (stereo not shown) = n

Shifting focus to the molecule that follows.
Request: # strict comparison: is reported viability at 28.5 h, 10 µM < 90%? input = CSc1ncc(CNC(=O)C2CCOc3ccccc3C2)n1C (stereo not shown)
Response: y
